# Test system: Rattus norvegicus
# Method Notes: Biodistribution in Rat blood after 24 hours of iv administration
# Type: ADME, organism-based
# Particulars: in vivo
Measurement Kind: Biodistribution (%)
Lab book: enter the figure in %, no units written.

Molecule: Nc1c(I)cc(I)c(CCCCCCCCCCCC(=O)OCC(COC(=O)CCCCCCCCCCCc2c(I)cc(I)c(N)c2I)OC(=O)CCCCCCCCCCCc2c(I)cc(I)c(N)c2I)c1I
Unit Abbrev: %
Biodistribution: 0.07

Molecule: Nc1c(I)cc(I)c(CCC(=O)OCC(COC(=O)CCc2c(I)cc(I)c(N)c2I)OC(=O)CCc2c(I)cc(I)c(N)c2I)c1I
Unit Abbrev: %
Biodistribution: 0.05

Molecule: Nc1c(I)cc(I)c(CCCCCCCCCCCCCCCCC(=O)OCC(COC(=O)CCCCCCCCCCCCCCCCc2c(I)cc(I)c(N)c2I)OC(=O)CCCCCCCCCCCCCCCCc2c(I)cc(I)c(N)c2I)c1I
Unit Abbrev: %
Biodistribution: 0.06

Molecule: CCCCCCCCCCCCCCCC(=O)OC(COC(=O)CCCCCCCCCCCc1c(I)cc(I)c(N)c1I)COC(=O)CCCCCCCCCCCc1c(I)cc(I)c(N)c1I
Unit Abbrev: %
Biodistribution: 0.1

Molecule: CCCCCCCCCCCCCCCC(=O)OC(COC(=O)CCCCCCCCCCCCCCCCc1c(I)cc(I)c(N)c1I)COC(=O)CCCCCCCCCCCCCCCCc1c(I)cc(I)c(N)c1I
Unit Abbrev: %
Biodistribution: 0.07

Lookup: Entry under review: CCC(Cc1c(I)cc(I)c(N)c1I)C(=O)OCC(COC(=O)C(CC)Cc1c(I)cc(I)c(N)c1I)OC(=O)C(CC)Cc1c(I)cc(I)c(N)c1I (stereo unspecified) . Reported Biodistribution?
Found: 0.14

====

# Test system: Rattus norvegicus
# Method Notes: Compound (125I labeled) was evaluated for the total radioactivity in albumin 5 min after intravenous administration.
# Format: functional
# Design: concentration or dose not given beside the values
Would you mind sorting the entries by Total radioactivity according to these classes? low-valued = under 4%, mid-valued = from 4% up to 20%, high-valued = 20% and over

Compound: Nc1c(I)cc(I)c(CCC(=O)OCC(COC(=O)CCc2c(I)cc(I)c(N)c2I)OC(=O)CCc2c(I)cc(I)c(N)c2I)c1I
Group Label: mid-valued
//
Compound: CCCCCCCCCCCCCCCC(=O)OC(COC(=O)CCCCCCCCCCCc1c(I)cc(I)c(N)c1I)COC(=O)CCCCCCCCCCCc1c(I)cc(I)c(N)c1I
Group Label: mid-valued

Lookup: # bin label for "CCCCCCCCCCCCCCCC(=O)OC(COC(=O)CCc1c(I)cc(I)c(N)c1I)COC(=O)CCc1c(I)cc(I)c(N)c1I"
Found: mid-valued

Lookup: Would you mind sorting "Nc1c(I)cc(I)c(CCCCCCCCCCCC(=O)OCC(COC(=O)CCCCCCCCCCCc2c(I)cc(I)c(N)c2I)OC(=O)CCCCCCCCCCCc2c(I)cc(I)c(N)c2I)c1I" into the appropriate category?
Found: high-valued

Lookup: Category of CCC(Cc1c(I)cc(I)c(N)c1I)C(=O)OCC(COC(=O)C(CC)Cc1c(I)cc(I)c(N)c1I)OC(=O)C(CC)Cc1c(I)cc(I)c(N)c1I (centres undefined) :
Found: low-valued

Lookup: Hello team, could you let me know which band the following compound falls into: "CCCCCCCCCCCCCCCC(=O)OC(COC(=O)CCCCCCCCCCCCCCCCc1c(I)cc(I)c(N)c1I)COC(=O)CCCCCCCCCCCCCCCCc1c(I)cc(I)c(N)c1I"
Found: high-valued

Lookup: Kindly state the category for this compound: CCCCCCCCCCCCCCCC(=O)OC(COC(=O)C(CC)Cc1c(I)cc(I)c(N)c1I)COC(=O)C(CC)Cc1c(I)cc(I)c(N)c1I (centres undefined)
Found: low-valued

Lookup: Bin this entry: "CCCCCCCCCCCCCCCC(=O)OC(COC(=O)Cc1c(I)cc(I)c(N)c1I)COC(=O)Cc1c(I)cc(I)c(N)c1I"
Found: mid-valued

====

Quick reference: Biodistribution of the listed items.
# Test system: Rattus norvegicus
# Method Notes: Biodistribution in Rat blood after 5 minutes of iv administration
# Assay type: ADME, organism-based
# Particulars: in vivo
Enter your answer as a number in %; do not include the unit.

Solved entries (count: 2):
Compound: CCCCCCCCCCCCCCCC(=O)OC(COC(=O)CCCCCCCCCCCc1c(I)cc(I)c(N)c1I)COC(=O)CCCCCCCCCCCc1c(I)cc(I)c(N)c1I
Experimental Value: 2.74
--
Compound: CCC(Cc1c(I)cc(I)c(N)c1I)C(=O)OCC(COC(=O)C(CC)Cc1c(I)cc(I)c(N)c1I)OC(=O)C(CC)Cc1c(I)cc(I)c(N)c1I (stereo not drawn)
Experimental Value: 6.95

Okay, next one:
Lookup: Would you kindly share the measured Biodistribution for "Nc1c(I)cc(I)c(CCCCCCCCCCCCCCCCC(=O)OCC(COC(=O)CCCCCCCCCCCCCCCCc2c(I)cc(I)c(N)c2I)OC(=O)CCCCCCCCCCCCCCCCc2c(I)cc(I)c(N)c2I)c1I" ?
Found: 4.14

====

# Test system: Rattus norvegicus
# Method Notes: Compound was evaluated for the lipid soluble radioactivity extracted from rat liver at 0.5 hr after intravenous administration.
# Format: functional
Labelling field: enter met if recorded Extracted is less than 90%. Enter not met if it equals or exceeds that cut-off.

Lookup: Item "CCCCCCCCCCCCCCCC(=O)OC(COC(=O)CCc1c(I)cc(I)c(N)c1I)COC(=O)CCc1c(I)cc(I)c(N)c1I" : Extracted beneath 90%, strictly?
Found: met

Lookup: Strictly below 90% in Extracted? "CCCCCCCCCCCCCCCC(=O)OC(COC(=O)CCCCCCCCCCCCCCCCc1c(I)cc(I)c(N)c1I)COC(=O)CCCCCCCCCCCCCCCCc1c(I)cc(I)c(N)c1I"
Found: met

Lookup: Does "CCCCCCCCCCCCCCCC(=O)OC(COC(=O)CCCCCCCCCCCc1c(I)cc(I)c(N)c1I)COC(=O)CCCCCCCCCCCc1c(I)cc(I)c(N)c1I" have Extracted strictly under 90%?
Found: met

Lookup: Decide: Extracted of "Nc1c(I)cc(I)c(CCC(=O)OCC(COC(=O)CCc2c(I)cc(I)c(N)c2I)OC(=O)CCc2c(I)cc(I)c(N)c2I)c1I" strictly below 90%?
Found: not met

Lookup: Lab log: compare recorded Extracted with 90%; is it strictly lower for "Nc1c(I)cc(I)c(CCCCCCCCCCCCCCCCC(=O)OCC(COC(=O)CCCCCCCCCCCCCCCCc2c(I)cc(I)c(N)c2I)OC(=O)CCCCCCCCCCCCCCCCc2c(I)cc(I)c(N)c2I)c1I" ?
Found: met

Lookup: Consider the molecule "Nc1c(I)cc(I)c(CCCCCCCCCCCC(=O)OCC(COC(=O)CCCCCCCCCCCc2c(I)cc(I)c(N)c2I)OC(=O)CCCCCCCCCCCc2c(I)cc(I)c(N)c2I)c1I" . Is its Extracted strictly less than 90%?
Found: met

====

# Tested on: Rattus norvegicus
# Method Notes: Biodistribution in Rat heart after 30 minutes of iv administration
# Assay type: ADME, organism-based
# Particulars: in vivo, 0.5 h
Reported Biodistribution is given for each of the following compounds.
Numbers only here, please. The scale is %.

# count of solved cases: 2
Compound: CCC(Cc1c(I)cc(I)c(N)c1I)C(=O)OCC(COC(=O)C(CC)Cc1c(I)cc(I)c(N)c1I)OC(=O)C(CC)Cc1c(I)cc(I)c(N)c1I (stereo not drawn)
Unit Abbrev: %
Biodistribution: 0.39
--
Compound: Nc1c(I)cc(I)c(CCCCCCCCCCCCCCCCC(=O)OCC(COC(=O)CCCCCCCCCCCCCCCCc2c(I)cc(I)c(N)c2I)OC(=O)CCCCCCCCCCCCCCCCc2c(I)cc(I)c(N)c2I)c1I
Unit Abbrev: %
Biodistribution: 0.92

Continue with the next compound.
Lookup: Tell me the measured Biodistribution of "CCCCCCCCCCCCCCCC(=O)OC(COC(=O)CCCCCCCCCCCc1c(I)cc(I)c(N)c1I)COC(=O)CCCCCCCCCCCc1c(I)cc(I)c(N)c1I" , please.
Found: 1.06

====

# Tested on: Rattus norvegicus
# Method Notes: Biodistribution in Rat lung after 30 minutes of iv administration
# Assay type: ADME, organism-based
# Particulars: in vivo, 0.5 h
Reported Biodistribution values follow for various compounds
Your reply should be a number followed by the unit it is expressed in.

Lookup: Quick check: Biodistribution of "CCCCCCCCCCCCCCCC(=O)OC(COC(=O)CCCCCCCCCCCc1c(I)cc(I)c(N)c1I)COC(=O)CCCCCCCCCCCc1c(I)cc(I)c(N)c1I" ?
Found: 0.73%

====

# Tested on: Rattus norvegicus
# Method Notes: Biodistribution in Rat lung after 24 hours of iv administration
# Format: ADME, organism-based
# Particulars: in vivo
Measurement Kind: Biodistribution (%)
Write the value in % as a bare number.

Record excerpt, results attached:
Molecule: Nc1c(I)cc(I)c(CCC(=O)OCC(COC(=O)CCc2c(I)cc(I)c(N)c2I)OC(=O)CCc2c(I)cc(I)c(N)c2I)c1I
Measurement Target: Rattus norvegicus
Experimental Value: 2.64
//
Molecule: CCCCCCCCCCCCCCCC(=O)OC(COC(=O)CCCCCCCCCCCc1c(I)cc(I)c(N)c1I)COC(=O)CCCCCCCCCCCc1c(I)cc(I)c(N)c1I
Measurement Target: Rattus norvegicus
Experimental Value: 0.12
//
Molecule: CCC(Cc1c(I)cc(I)c(N)c1I)C(=O)OCC(COC(=O)C(CC)Cc1c(I)cc(I)c(N)c1I)OC(=O)C(CC)Cc1c(I)cc(I)c(N)c1I (stereo unspecified)
Measurement Target: Rattus norvegicus
Experimental Value: 0.58
//
Molecule: CCCCCCCCCCCCCCCC(=O)OC(COC(=O)CCCCCCCCCCCCCCCCc1c(I)cc(I)c(N)c1I)COC(=O)CCCCCCCCCCCCCCCCc1c(I)cc(I)c(N)c1I
Measurement Target: Rattus norvegicus
Experimental Value: 0.08
//
Molecule: Nc1c(I)cc(I)c(CCCCCCCCCCCC(=O)OCC(COC(=O)CCCCCCCCCCCc2c(I)cc(I)c(N)c2I)OC(=O)CCCCCCCCCCCc2c(I)cc(I)c(N)c2I)c1I
Measurement Target: Rattus norvegicus
Experimental Value: 0.09

Lookup: Item "Nc1c(I)cc(I)c(CCCCCCCCCCCCCCCCC(=O)OCC(COC(=O)CCCCCCCCCCCCCCCCc2c(I)cc(I)c(N)c2I)OC(=O)CCCCCCCCCCCCCCCCc2c(I)cc(I)c(N)c2I)c1I" has what recorded Biodistribution?
Found: 0.07
